Origin of values: patent US20210352895A1

Test system: Fusarium oxysporum
ASSAY_METHOD_TEXT: Synergistic Growth Inhibition Assay (MIC / FIC index, resazurin, 96-well) on Fusarium oxysporum
Type: cell-based
DETAILS: Fusarium oxysporum, 48 h, Compound B alone; Fusarium oxysporum; 48 hours incubation; read-out: MIC (B)
So I've got a bunch of molecules here, and I need their MIC values.
One number for each entry, in µg/mL.

// known answers, use as guide
INSERT INTO assay_data (molecule, observable, experimental_result) VALUES
  ('CCCCC(O)C(=O)O (stereo not drawn) [2-hydroxyhexanoic acid]', 'MIC', 2500),
  ('CCC(O)C(=O)O (stereo not drawn) [2-hydroxybutyric acid]', 'MIC', 5000),
  ('CCCCCCC(O)C(=O)O (stereo not drawn) [2-hydroxyoctanoic acid]', 'MIC', 625),
  ('CCCCCCC(C)C(=O)O (stereo not drawn) [2-methyloctanoic acid]', 'MIC', 156);

Parameters: items (list). Returns: MIC for each item.
1. CCC(CC)(CC)C(=O)O [2,2-diethylbutyric acid]
2. CCCC(C)CC(=O)O (stereo not drawn) [3-methylhexanoic acid]
3. CC(C)CC(=O)O [3-methylbutyric acid]
4. CCC(C)CCC(=O)O (stereo not drawn) [4-methylhexanoic acid]

[250, 125, 625, 156]

# MIC (molecule: CCCCCCCCC(C)C(=O)O (stereo not drawn) [2-methyldecanoic acid] ) is 62.5
